Source listed as paper PMC9033141.

- System Tested: CAVB (Homo sapiens)
- Construct: made in house; host or cells: E. coli
- Sequence (Q9Y2D0 34-317): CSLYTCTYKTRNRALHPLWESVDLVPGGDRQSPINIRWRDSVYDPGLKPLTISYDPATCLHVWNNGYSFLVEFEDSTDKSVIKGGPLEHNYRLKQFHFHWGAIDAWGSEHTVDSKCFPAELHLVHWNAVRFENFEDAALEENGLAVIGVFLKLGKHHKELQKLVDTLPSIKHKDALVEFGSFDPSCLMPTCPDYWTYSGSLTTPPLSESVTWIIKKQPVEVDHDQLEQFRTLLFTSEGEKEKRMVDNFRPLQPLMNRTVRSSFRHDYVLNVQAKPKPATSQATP
- Protocol Details: Fluorescent thermal shift assay (FTSA), CAVB
- Assay type: binding
- Condition Summary: FTSA, pH 7.0, 37 °C; read-out: Observed Dissociation Constant (Kd_obs), CAVB
Entries and their Kd values follow.

Below, 3 molecules whose answers are already recorded.
Incoming: Record request: Kd value, item CNC(=S)NNC(=O)CC(CNc1ccc(S(N)(=O)=O)cc1Cl)C(=O)NNC(=S)NC (stereo not shown) [Compound 22b]
Outgoing: ≥ 200000 nM

Incoming: // Kd lookup, key: NS(=O)(=O)c1ccc(NCC(CC(=O)NN=Cc2ccc(C(=O)O)cc2)C(=O)NN=Cc2ccc(C(=O)O)cc2)cc1 (stereo not shown) [Compound 18a]
Outgoing: 14000 nM

Incoming: Kd for CCOC(=O)c1sc(N(CCC(=O)OC)c2ccc(S(N)(=O)=O)cc2)nc1C ?
Outgoing: 30 nM

Now look at this one.
Incoming: Form field: reported Kd of Cc1csc(N(CCC(=O)NN)c2ccc(S(N)(=O)=O)cc2)n1
Outgoing: 77 nM
